Source of measurements: patent US8961937B2

Target: Aβ40 aggregates (Homo sapiens)
Construct: agglomerated Aβ40 peptide (10 μM, 35° C., agglomerated in PBS buffer for 3 days.)
Sequence (P05067 672-711 limits assumed): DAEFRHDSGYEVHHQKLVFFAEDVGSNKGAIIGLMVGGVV
Test: Apparent binding constant (Kd) by fluorescence titration with aggregated Aβ40 peptide
Details: 10 μM aggregated Aβ40 peptide, PBS, N = 3; read-out: Kd (mean ± SD)
Criterion: Kd strictly less than 3 µM. Met: satisfied. Not met: not satisfied.

compound: COc1ccc(/C=C/n2ncc(Cl)c(Cl)c2=O)cc1 [Compound 18]
group_label: satisfied
--
compound: COc1ccc(/C=C/n2ncc(Cl)c(Cl)c2=O)c(OC)c1 [Compound 20]
group_label: not satisfied
--
compound: COc1cccc(/C=C/n2ncc(Cl)c(Cl)c2=O)c1 [Compound 17]
group_label: not satisfied
--
compound: COc1cccc(/C=C/n2ncc(Cl)c(Cl)c2=O)c1OC [Compound 19]
group_label: not satisfied
--
compound: CN(C)c1ccc(/C=C/n2ncc(Cl)c(Cl)c2=O)cc1 [Compound 14]
group_label: satisfied
--
compound: COc1cc(/C=C/n2ncc(Cl)c(Cl)c2=O)cc(OC)c1OC [Compound 28]
group_label: not satisfied
--
compound: COc1ccc(/C=C/n2ncc(Cl)c(Cl)c2=O)c(OC)c1OC [Compound 25]
group_label: not satisfied
--
compound: COc1cc(OC)c(/C=C/n2ncc(Cl)c(Cl)c2=O)c(OC)c1 [Compound 27]
group_label: not satisfied
